test system: A549; test: Cytotoxicity against human A549 cells by MTT assay; format: functional, cell-based
pIC50: −log10 of the molar value.
Collected pIC50 values appear next to each entry.

// solved cases for pIC50 follow
INSERT INTO results (compound, result) VALUES
  ('CCOC(=O)[C@H]1O[C@@H](O[C@H]2CC[C@]3(C)[C@H]4CC=C5[C@@H]6CC(C)(C)[C@@H](OC(=O)/C=C(/C)CCC=C(C)C)[C@H](OC(=O)C(C)CC)[C@]6(CO)[C@H](O)[C@H](O)[C@@]5(C)[C@]4(C)CC[C@H]3C2(C)C)[C@H](O[C@@H]2O[C@H](CO)[C@@H](O)[C@H](O)[C@H]2O)[C@@H](O)[C@@H]1O[C@@H]1O[C@@H](CO)[C@H](O)[C@H]1O (stereo partly drawn) [SYMPLOCOSOSIDE Q]', '< 5.00'),
  ('CCC(C)C(=O)O[C@H]1[C@H](OC(=O)/C=C/c2ccccc2)C(C)(C)C[C@H]2C3=CC[C@@H]4[C@@]5(C)CC[C@H](O[C@@H]6O[C@H](CO)[C@@H](O[C@@H]7O[C@@H](CO)[C@H](O)[C@H]7O)[C@H](O)[C@H]6O[C@@H]6O[C@H](CO)[C@@H](O)[C@H](O)[C@H]6O)C(C)(C)[C@@H]5CC[C@@]4(C)[C@]3(C)[C@@H](O)[C@@H](O)[C@]21CO (stereo partly drawn) [SYMPLOCOSOSIDE X]', 5.68);

Shifting focus to the compound that follows.
Which pIC50 value is on record for CCCCOC(=O)[C@H]1O[C@@H](O[C@H]2CC[C@]3(C)[C@H]4CC=C5[C@@H]6CC(C)(C)C[C@H](OC(=O)/C=C(/C)CCC=C(C)C)[C@]6(CO)[C@H](O)[C@H](O)[C@@]5(C)[C@]4(C)CC[C@H]3C2(C)C)[C@H](O[C@@H]2O[C@H](CO)[C@@H](O)[C@H](O)[C@H]2O)[C@@H](O)[C@@H]1O[C@@H]1O[C@@H](CO)[C@H](O)[C@H]1O [SYMPLOCOSOSIDE F] ?
< 5.00

====

system: A2780; assay: Cytotoxicity against human A2780 cells by MTT assay; assay type: functional, cell-based
Collected pIC50 values appear next to each entry.
Scale: pIC50 equals -log10([C]), with [C] in mol/L.

// solved cases for pIC50 follow
INSERT INTO assay_data (compound, target_desc, number) VALUES
  ('CC(=O)O[C@@H]1[C@@H](O[C@@H]2O[C@H](CO)[C@@H](O)[C@H](O)[C@H]2O)[C@H](O[C@H]2CC[C@]3(C)[C@H]4CC=C5[C@@H]6CC(C)(C)[C@@H](OC(=O)/C=C(\C)CCC=C(C)C)[C@H](OC(=O)C(C)C)[C@]6(CO)[C@H](O)[C@H](O)[C@@]5(C)[C@]4(C)CC[C@H]3C2(C)C)O[C@H](C(=O)O)[C@H]1O[C@@H]1O[C@@H](CO)[C@H](O)[C@H]1O [SYMPLOCOSOSIDE M]', 'A2780', 5.64),
  ('CCC(C)C(=O)O[C@H]1[C@H](OC(=O)/C=C(\C)CCC=C(C)C)C(C)(C)C[C@H]2C3=CC[C@@H]4[C@@]5(C)CC[C@H](O[C@@H]6O[C@H](C(=O)O)[C@@H](O)[C@H](O)[C@H]6O[C@@H]6O[C@H](CO)[C@@H](O)[C@H](O)[C@H]6O)C(C)(C)[C@@H]5CC[C@@]4(C)[C@]3(C)[C@@H](O)[C@@H](O)[C@]21CO (stereo partly specified)', 'A2780', 5.72),
  ('CCCCOC(=O)[C@H]1O[C@@H](O[C@H]2CC[C@]3(C)[C@H]4CC=C5[C@@H]6CC(C)(C)[C@@H](OC(=O)/C=C/c7ccccc7)[C@H](OC(=O)C(C)CC)[C@]6(CO)[C@H](O)[C@H](O)[C@@]5(C)[C@]4(C)CC[C@H]3C2(C)C)[C@H](O[C@@H]2O[C@H](CO)[C@@H](O)[C@H](O)[C@H]2O)[C@@H](O)[C@@H]1O[C@@H]1O[C@@H](CO)[C@H](O)[C@H]1O (stereo partly specified) [SYMPLOCOSOSIDE E]', 'A2780', 5.77),
  ('CCC(C)C(=O)O[C@H]1[C@H](OC(=O)/C=C(/C)CCC=C(C)C)C(C)(C)C[C@H]2C3=CC[C@@H]4[C@@]5(C)CC[C@H](O[C@@H]6O[C@H](C(=O)O)[C@@H](O[C@@H]7O[C@@H](CO)[C@H](O)[C@H]7O)[C@H](OC(C)=O)[C@H]6O[C@@H]6O[C@H](CO)[C@@H](O)[C@H](O)[C@H]6O)C(C)(C)[C@@H]5CC[C@@]4(C)[C@]3(C)[C@@H](O)[C@@H](O)[C@]21CO (stereo partly specified) [SYMPLOCOSOSIDE G]', 'A2780', 5.85),
  ('CCCCOC(=O)[C@H]1O[C@@H](O[C@H]2CC[C@]3(C)[C@H]4CC=C5[C@@H]6CC(C)(C)[C@@H](OC(=O)/C=C(/C)CCC=C(C)C)[C@H](OC(=O)C(C)CC)[C@]6(CO)[C@H](O)[C@H](O)[C@@]5(C)[C@]4(C)CC[C@H]3C2(C)C)[C@H](O[C@@H]2O[C@H](CO)[C@@H](O)[C@H](O)[C@H]2O)[C@@H](O)[C@@H]1O[C@@H]1O[C@@H](CO)[C@H](O)[C@H]1O (stereo partly specified) [SYMPLOCOSOSIDE C]', 'A2780', 5.89);

Which pIC50 value is on record for CCC(C)C(=O)O[C@H]1[C@H](OC(=O)/C=C(/C)CCC=C(C)C)C(C)(C)C[C@H]2C3=CC[C@@H]4[C@@]5(C)CC[C@H](O[C@@H]6O[C@H](C(=O)OC)[C@@H](O[C@@H]7O[C@@H](CO)[C@H](O)[C@H]7O)[C@H](OC(C)=O)[C@H]6O[C@@H]6O[C@H](CO)[C@@H](O)[C@H](O)[C@H]6O)C(C)(C)[C@@H]5CC[C@@]4(C)[C@]3(C)[C@@H](O)[C@@H](O)[C@]21CO (stereo partly specified) [SYMPLOCOSOSIDE I] ?
5.49

// query: CCC(C)C(=O)O[C@H]1[C@H](OC(=O)/C=C/c2ccccc2)C(C)(C)C[C@H]2C3=CC[C@@H]4[C@@]5(C)CC[C@H](O[C@@H]6O[C@H](CO)[C@@H](O[C@@H]7O[C@@H](CO)[C@H](O)[C@H]7O)[C@H](OC(C)=O)[C@H]6O[C@@H]6O[C@H](CO)[C@@H](O)[C@H](O)[C@H]6O)C(C)(C)[C@@H]5CC[C@@]4(C)[C@]3(C)[C@@H](O)[C@@H](O)[C@]21CO (stereo partly specified) [SYMPLOCOSOSIDE Y]
5.47

// query: CCCCOC(=O)[C@H]1O[C@@H](O[C@H]2CC[C@]3(C)[C@H]4CC=C5[C@@H]6CC(C)(C)[C@@H](OC(=O)/C=C(\C)CCC=C(C)C)[C@H](OC(=O)C(C)CC)[C@]6(CO)[C@H](O)[C@H](O)[C@@]5(C)[C@]4(C)CC[C@H]3C2(C)C)[C@H](O[C@@H]2O[C@H](CO)[C@@H](O)[C@H](O)[C@H]2O)[C@@H](O)[C@@H]1O[C@@H]1O[C@@H](CO)[C@H](O)[C@H]1O (stereo partly specified) [SYMPLOCOSOSIDE D]
5.76

// query: CC(=O)O[C@@H]1[C@@H](O[C@@H]2O[C@H](CO)[C@@H](O)[C@H](O)[C@H]2O)[C@H](O[C@H]2CC[C@]3(C)[C@H]4CC=C5[C@@H]6CC(C)(C)[C@@H](OC(=O)/C=C(/C)CCC=C(C)C)[C@H](OC(=O)C(C)C)[C@]6(CO)[C@H](O)[C@H](O)[C@@]5(C)[C@]4(C)CC[C@H]3C2(C)C)O[C@H](C(=O)O)[C@H]1O[C@@H]1O[C@@H](CO)[C@H](O)[C@H]1O [SYMPLOCOSOSIDE L]
5.62

====

test system: A2780; assay: Cytotoxicity against human A2780 cells by MTT assay; format: functional, cell-based
Collected pIC50 values appear next to each entry.
Scale: pIC50 equals -log10([C]), with [C] in mol/L.

// solved cases for pIC50 follow
INSERT INTO measurements (compound, number) VALUES
  ('COc1cccc2c1C(=O)c1c(O)c3c(c(O)c1C2=O)C[C@@](O)(C(=O)CO)C[C@@H]3O[C@H]1C[C@H](N)[C@H](O)[C@H](C)O1 [DOXORUBICIN]', 7.00),
  ('COC(=O)[C@H]1O[C@@H](O[C@H]2CC[C@]3(C)[C@H]4CC=C5[C@@H]6CC(C)(C)[C@@H](OC(=O)/C=C(/C)CCC=C(C)C)[C@H](OC(=O)c7ccccc7)[C@]6(CO)[C@H](O)[C@H](O)[C@@]5(C)[C@]4(C)CC[C@H]3C2(C)C)[C@H](O[C@@H]2O[C@H](CO)[C@@H](O)[C@H](O)[C@H]2O)[C@@H](OC(C)=O)[C@@H]1O[C@@H]1O[C@@H](CO)[C@H](O)[C@H]1O [SYMPLOCOSOSIDE K]', 6.10);

Shifting focus to the compound that follows.
pIC50 of CCC(C)C(=O)O[C@H]1[C@H](OC(=O)/C=C/c2ccccc2)C(C)(C)C[C@H]2C3=CC[C@@H]4[C@@]5(C)CC[C@H](O[C@@H]6O[C@H](C(=O)O)[C@@H](O)[C@H](O)[C@H]6O[C@@H]6O[C@H](CO)[C@@H](O)[C@H](O)[C@H]6O)C(C)(C)[C@@H]5CC[C@@]4(C)[C@]3(C)[C@@H](O)[C@@H](O)[C@]21CO (stereo not given in full) [SYMPLOCOSOSIDE N] on A2780?
5.49
